# Internalization %, MDA-MB-231, 1 µg/ml, 2 h values compiled below
# assay_target: T1, human Trop-2 expressed on cell surface (human, UniProt P09758 27-323)
# T1 sequence (looked up): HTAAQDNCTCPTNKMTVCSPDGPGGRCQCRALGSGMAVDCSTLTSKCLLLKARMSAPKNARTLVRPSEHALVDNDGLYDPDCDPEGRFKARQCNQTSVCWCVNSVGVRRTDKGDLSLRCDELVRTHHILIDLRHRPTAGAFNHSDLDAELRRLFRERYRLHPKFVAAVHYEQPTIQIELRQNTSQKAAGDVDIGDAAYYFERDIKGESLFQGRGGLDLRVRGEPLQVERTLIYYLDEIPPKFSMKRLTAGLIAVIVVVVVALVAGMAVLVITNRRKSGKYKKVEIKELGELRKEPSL
# assay_explanation: cell-based or functional assay
Report only the number, with the unit % understood.

Please fill in: Internalization %, MDA-MB-231, 1 µg/ml, 2 h reported for 5D4 (antibody, V domains shown, Rabbit-derived clone; LEM construct: VH + rabbit IgG CH1 + human IgG1 CH2-CH3) VH: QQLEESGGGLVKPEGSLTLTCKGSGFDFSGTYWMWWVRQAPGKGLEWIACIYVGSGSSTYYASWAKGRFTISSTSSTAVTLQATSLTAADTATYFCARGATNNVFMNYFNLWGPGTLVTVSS VL: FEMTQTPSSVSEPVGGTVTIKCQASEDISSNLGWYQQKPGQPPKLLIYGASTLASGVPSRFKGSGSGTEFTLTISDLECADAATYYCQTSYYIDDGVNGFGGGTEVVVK = 65

// Internalization %, MDA-MB-231, 1 µg/ml, 2 h lookup, binder = 9D7-2 (antibody, V domains shown) VH: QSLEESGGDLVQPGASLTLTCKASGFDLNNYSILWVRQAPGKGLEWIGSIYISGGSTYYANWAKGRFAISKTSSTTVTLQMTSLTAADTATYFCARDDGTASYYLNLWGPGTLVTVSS VL: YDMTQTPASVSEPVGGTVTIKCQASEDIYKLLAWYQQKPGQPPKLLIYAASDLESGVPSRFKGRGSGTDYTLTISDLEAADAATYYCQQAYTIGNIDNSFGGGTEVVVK , result: 51
